target: CD3 (antigen of the binding affinity table of Example 1) (UniProt P07766); assay: kinetic fit with two-state parameters; method not given
RECORDED METRIC: kd2 (s⁻¹)
Enter your answer as a number in s⁻¹; do not include the unit.

Here are 2 binders together with their reported answers.
binder="H2L3 (antibody, V domains shown) VH: QVQLQQSGAEVAKPGASVKVSCKASGYTFTRYTMHWVRQAPGQGLEWMGYINPSRGYTNYNQKFKDRATLTRDKSISTAYMELSRLRSDDTAVYYCARYYDDHYSLDYWGQGTTLTVSS VL: DIQLTQSPSSLSASVGDRVTITCSASSSVSYMNWYQQKPGKAPKLLIYDTSKLASGVPSRFSGSGSGTDYTLTISSLQPEDFATYYCQQWSSNPFTFGSGTKLEINR" measurement=0.000719
binder="H4L2 (antibody, V domains shown) VH: QVQLQQSGAEVKKPGASVKMSCKASGYTFTRYTMHWVRQAPGQGLEWIGYINPSRGYTNYNQKFKDRVTLTTDTSISTAYMELSRLRSDDTAVYYCARYYDDHYSLDYWGQGTTLTVSS VL: DIQMTQSPSSLSASVGDRVTMTCSASSSVSYMNWYQQKPGKAPKLLIYDTSKLASGVPSRFSGSGSGTDFTLTISSMQPEDFATYYCQQWSSNPFTFGSGTKLEINR" measurement=0.00294

Prompt: Output kd2 of H2L5 (antibody, V domains shown) VH: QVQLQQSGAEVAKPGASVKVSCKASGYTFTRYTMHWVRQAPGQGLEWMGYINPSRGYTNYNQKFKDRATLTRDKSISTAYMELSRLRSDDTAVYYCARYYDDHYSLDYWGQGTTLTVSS VL: DIQMTQSPSSLSASVGDRVTITCSASSSVSYMNWYQQKPGKAPKRWIYDTSKLASGVPSRFSGSGSGTDFTLTISSLQPEDFATYYCQQWSSNPFTFGSGTKLEINR
Completion: 0.00369
